- Test system: VAL (B-Cell Non-Hodgkin's Lymphoma)
- test-description: Bliss excess, mean over the matrix (fraction); higher = more synergy;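 further: after 72 h of two-drug dosing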
Values of Bliss excess greater than or equal to -0.03 map to T; values below map to F.

Record O=C(c1cc(Cc2n[nH]c(=O)c3ccccc23)ccc1F)N1CCN(C(=O)C2CC2)CC1 [Olaparib] + Cc1c2c(nn1C)CSCc1cc(n(C)n1)CSc1cc(c3ccccc3c1)OCCCc1c(C(=O)O)n(C)c3c-2c(Cl)ccc13 [AZD5991] (first compound max 10 µM, 7x7, partner max 1 µM) ; criterion: Bliss excess no lower than -0.03. Met? T

Record CN(C)CCCOc1ccc(-c2ccc3ncc4c(c3c2)n(C2CCOCC2)c(=O)n4C)cn1 [AZD0156] + CCN(CCO)CCCOc1ccc2c(Nc3cc(CC(=O)Nc4cccc(F)c4)[nH]n3)ncnc2c1 [AZD2811] (first compound max 1 µM, 7x7, partner max 1 µM) ; criterion: Bliss excess no lower than -0.03. Met? F

Record COc1nnc2ccc(N3CCC(c4ccc(OCCN5CCN(C)C(=O)[C@H]5C)cc4)CC3)nn12 [AZD5153] + Cc1c2c(nn1C)CSCc1cc(n(C)n1)CSc1cc(c3ccccc3c1)OCCCc1c(C(=O)O)n(C)c3c-2c(Cl)ccc13 [AZD5991] (first compound max 1 µM, 7x7, partner max 1 µM) ; criterion: Bliss excess no lower than -0.03. Met? F

Record COc1cccc(OCCCN)c1-c1cc(Nc2cnc(C#N)cn2)n[nH]1 [Prexasertib] + O=C(c1cc(Cc2n[nH]c(=O)c3ccccc23)ccc1F)N1CCN(C(=O)C2CC2)CC1 [Olaparib] (first compound max 1 µM, 7x7, partner max 10 µM) ; criterion: Bliss excess no lower than -0.03. Met? F

Record CC1(C)CCC(CN2CCN(c3ccc(C(=O)NS(=O)(=O)c4ccc(NCC5CCOCC5)c([N+](=O)[O-])c4)c(Oc4cnc5[nH]ccc5c4)c3)CC2)=C(c2ccc(Cl)cc2)C1 [Venetoclax] + CN(C)CCCOc1ccc(-c2ccc3ncc4c(c3c2)n(C2CCOCC2)c(=O)n4C)cn1 [AZD0156] (first compound max 1 µM, 7x7, partner max 1 µM) ; criterion: Bliss excess no lower than -0.03. Met? T

Record COc1nnc2ccc(N3CCC(c4ccc(OCCN5CCN(C)C(=O)[C@H]5C)cc4)CC3)nn12 [AZD5153] + C=CCn1c(=O)c2cnc(Nc3ccc(N4CCN(C)CC4)cc3)nc2n1-c1cccc(C(C)(C)O)n1 [AZD1775] (first compound max 1 µM, partner max 1 µM) ; criterion: Bliss excess no lower than -0.03. Met? F

###

- Test system: SHP-77 (Small Cell Lung Carcinoma)
- test-description: Bliss excess, mean over the matrix (fraction); higher = more synergy
recorded-endpoint: Bliss excess
Response field accepts a number only; no unit should be typed.

Would you mind telling me what Bliss excess value was observed for Cc1nc(Nc2ncc(C(=O)Nc3c(C)cccc3Cl)s2)cc(N2CCN(CCO)CC2)n1 [Dasatinib] + CC(=O)Nc1cccc(-n2c(=O)n(C3CC3)c(=O)c3c(Nc4ccc(I)cc4F)n(C)c(=O)c(C)c32)c1 [Trametinib] (first compound max 2 µM, 7x7, partner max 1 µM) ? -0.0238

Would you mind telling me what Bliss excess value was observed for COc1cccc(OCCCN)c1-c1cc(Nc2cnc(C#N)cn2)n[nH]1 [Prexasertib] + CCc1c2c(nc3ccc(O)cc13)-c1cc3c(c(=O)n1C2)COC(=O)[C@]3(O)CC [SN-38] (first compound max 1 µM, 7x7, partner max 0.3 µM) ? 0.121

Would you mind telling me what Bliss excess value was observed for COc1cc2ncnc(Nc3ccc(F)c(Cl)c3)c2cc1OCCCN1CCOCC1 [Gefitinib] + CC(C)n1c(=O)n(C)c2cnc3cc(F)c(-c4ccc(OCCCN5CCCCC5)nc4)cc3c21 [AZD1390] (first compound max 10 µM, 7x7, partner max 0.3 µM) ? -0.0471
